test: Cytotoxicity against human E6SM cells; format: cell-based; conditions: E6SM cells
PROPERTY MEASURED: MCC (µg/mL)
Numbers only; they are read as µg/mL.

Observe how each entry below is paired with its result.
C=CCNC(=S)Nc1ccc(-c2n[nH]c(=S)n2C)cc1 :: 400
CNC(=S)Nc1ccc(-c2n[nH]c(=S)n2-c2ccccc2)cc1 :: 400
CCn1c(COc2ccc(NC(=S)Nc3ccccc3)cc2)n[nH]c1=S :: 400
Cn1c(COc2ccc(NC(=S)Nc3ccccc3)cc2)n[nH]c1=S :: 400
C=CCn1c(-c2ccc(NC(=S)Nc3ccccc3)cc2)n[nH]c1=S :: 80

// query For the molecule shown here, CNC(=S)Nc1ccc(-c2n[nH]c(=S)n2C)cc1 , give the reported MCC.
// result 400

// query MCC value for entry C=CCNC(=S)Nc1ccc(-c2n[nH]c(=S)n2CCCCCC)cc1
// result 80

// query Give its MCC value. Item: C=CCNC(=S)Nc1ccc(-c2n[nH]c(=S)n2CCc2ccccc2)cc1
// result 400

----------
assay: Cytotoxicity against human E6SM cells; assay type: cell-based; conditions: E6SM cells
Documented MCC across a set of compounds

Example cases with answers are listed next.
CCNC(=S)Nc1ccc(OCc2n[nH]c(=S)n2C)cc1 :: > 400 µg/mL
CCNC(=S)Nc1ccc(OCc2n[nH]c(=S)n2CC)cc1 :: > 400 µg/mL
C=CCNC(=S)Nc1ccc(-c2n[nH]c(=S)n2-c2ccccc2)cc1 :: ≥ 80 µg/mL
C=CCn1c(COc2ccc(N)cc2)n[nH]c1=S :: > 400 µg/mL
C=CCNC(=S)Nc1ccc(OCc2n[nH]c(=S)n2CC=C)cc1 :: > 400 µg/mL

// query Quick one: MCC for C=CCNC(=S)Nc1ccc(OCc2n[nH]c(=S)n2C)cc1 ?
// result > 400 µg/mL

----------
Known MCC of a selection of compounds
experiment: Cytotoxicity against human HeLa cells; assay type: cell-based
Form entry: value (µg/mL) — number only.

CCCCCCNC(=S)Nc1ccc(-c2n[nH]c(=S)n2CCCCCC)cc1 :: 16
CNC(=S)Nc1ccc(-c2nnc(SCc3ccccc3)n2C)cc1 :: 80
C=CCn1c(-c2ccc(NC(=S)NC)cc2)n[nH]c1=S :: 400
C=CCn1c(-c2ccc(NC(=S)Nc3ccccc3)cc2)n[nH]c1=S :: 400

// query Find the recorded MCC belonging to C=CCn1c(COc2ccc(NC(=S)NCC)cc2)n[nH]c1=S and report it.
// result 400

// query Looking for the measured MCC of C=CCNC(=S)Nc1ccc(OCc2n[nH]c(=S)n2-c2ccccc2)cc1 , can you help?
// result 400

// query # lookup: MCC of CCNC(=S)Nc1ccc(-c2n[nH]c(=S)n2C)cc1
// result 400

// query Which measured MCC value corresponds to C=CCNC(=S)Nc1ccc(-c2nnc(SCc3ccc(Cl)cc3Cl)n2C)cc1 ?
// result 400

// query Which MCC is reported for this compound? CCNC(=S)Nc1ccc(OCc2n[nH]c(=S)n2C)cc1
// result 400

----------
tested on: Mammalian orthoreovirus 1; assay: Antiviral activity against Reo virus 1 in african green monkey Vero cells assessed as reduction of virus-induced cytopathogenicity; type: functional
Each entry below carries its reported MIC.

// query What does the data say about its MIC? Entry: C=CCn1c(-c2ccc(NC(=S)Nc3ccccc3)cc2)n[nH]c1=S
// result > 16 µg/mL

// query Fill in: MIC of C=CCNC(=S)Nc1ccc(-c2n[nH]c(=S)n2CCCCCC)cc1 is ___
// result > 16 µg/mL

// query Returns the measured MIC for the input compound. Input: CCCCCCNC(=S)Nc1ccc(-c2n[nH]c(=S)n2CC)cc1
// result > 80 µg/mL

// query # input compound: Nc1ccc(OCc2n[nH]c(=S)n2-c2ccccc2)cc1 ; wanted: its MIC
// result > 80 µg/mL

// query Would you mind telling me what MIC value was observed for CCCCCCNC(=S)Nc1ccc(-c2n[nH]c(=S)n2-c2ccccc2)cc1 ?
// result > 80 µg/mL

// query Which value of MIC has been reported for CCNC(=S)Nc1ccc(-c2n[nH]c(=S)n2C)cc1 in the records?
// result > 80 µg/mL

// query Item under review: CNC(=S)Nc1ccc(-c2n[nH]c(=S)n2-c2ccccc2)cc1 . Reported MIC?
// result > 80 µg/mL
